Reference source for all entries: ChEMBL document CHEMBL1150247

Reported pIC50 values are given for each entry in this list.
- Assay details: Inhibition of HIV1 YU2 gp120 binding to immobilized CD4 by surface plasmon resonance method
- Parameters: species or system Human immunodeficiency virus 1
// field semantics: pIC50 = negative decimal log of concentration (mol/L)

These recorded examples may help you get a feel for the data.
Compound	Measured
CCc1ccc(-c2cn([C@H]3C[C@@H](C(=O)N[C@@H](Cc4c[nH]c5ccccc45)C(=O)N[C@@H](CO)C(=O)N[C@@H](CCC(=O)O)C(=O)N[C@@H](C)C(=O)N[C@@H](CCSC)C(=O)N[C@@H](CCSC)C(=O)O)N(C(=O)[C@@H](NC(=O)[C@H](CC(N)=O)NC(=O)[C@H](CC(N)=O)NC(=O)[C@@H](NC(=O)[C@@H](N)CCCNC(=N)N)[C@@H](C)CC)[C@@H](C)CC)C3)nn2)cc1	6.84
CC[C@H](C)[C@H](NC(=O)[C@@H](N)CCCNC(=N)N)C(=O)N[C@@H](CC(N)=O)C(=O)N[C@@H](CC(N)=O)C(=O)N[C@H](C(=O)N1CCC[C@H]1C(=O)N[C@@H](Cc1c[nH]c2ccccc12)C(=O)N[C@@H](CO)C(=O)N[C@@H](CCC(=O)O)C(=O)N[C@@H](C)C(=O)N[C@@H](CCSC)C(=O)N[C@@H](CCSC)C(=O)O)[C@@H](C)CC [RINNIPWSEAMM]	5.27
CC[C@H](C)[C@H](NC(=O)[C@@H](N)CCCNC(=N)N)C(=O)N[C@@H](CC(N)=O)C(=O)N[C@@H](CC(N)=O)C(=O)N[C@H](C(=O)N1C[C@@H](n2cc(-c3ccc(CCc4ccccc4)cc3)nn2)C[C@H]1C(=O)N[C@@H](Cc1c[nH]c2ccccc12)C(=O)N[C@@H](CO)C(=O)N[C@@H](CCC(=O)O)C(=O)N[C@@H](C)C(=O)N[C@@H](CCSC)C(=O)N[C@@H](CCSC)C(=O)O)[C@@H](C)CC	7.00
CC[C@H](C)[C@H](NC(=O)[C@@H](N)CCCNC(=N)N)C(=O)N[C@@H](CC(N)=O)C(=O)N[C@@H](CC(N)=O)C(=O)N[C@H](C(=O)N1C[C@@H](n2cc(-c3ccc(C)cc3)nn2)C[C@H]1C(=O)N[C@@H](Cc1c[nH]c2ccccc12)C(=O)N[C@@H](CO)C(=O)N[C@@H](CCC(=O)O)C(=O)N[C@@H](C)C(=O)N[C@@H](CCSC)C(=O)N[C@@H](CCSC)C(=O)O)[C@@H](C)CC	7.17

Summary for this compound, CC[C@H](C)[C@H](NC(=O)[C@@H](N)CCCNC(=N)N)C(=O)N[C@@H](CC(N)=O)C(=O)N[C@@H](CC(N)=O)C(=O)N[C@H](C(=O)N1C[C@@H](n2cc(-c3ccccc3)nn2)C[C@H]1C(=O)N[C@@H](Cc1c[nH]c2ccccc12)C(=O)N[C@@H](CO)C(=O)N[C@@H](CCC(=O)O)C(=O)N[C@@H](C)C(=O)N[C@@H](CCSC)C(=O)N[C@@H](CCSC)C(=O)O)[C@@H](C)CC : pIC50 is 6.81
